The origin of these recorded values is patent US9079866B2.

Target: human FLAP (Homo sapiens (Human), UniProt P20292)
Sequence (P20292 whole entry): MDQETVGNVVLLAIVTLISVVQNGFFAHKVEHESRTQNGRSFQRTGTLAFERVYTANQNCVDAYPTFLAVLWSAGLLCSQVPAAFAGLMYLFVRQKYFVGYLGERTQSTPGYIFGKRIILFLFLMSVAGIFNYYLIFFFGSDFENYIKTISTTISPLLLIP
Test: FLAP binding assay (HTRF format)
Settings: wild type FLAP, HTRF format
Structures can show the parent of a compound that is named as a salt.
attributeMeasured: Ki (nM)

Nc1ncc(-c2ccc(-c3cccnc3S(=O)(=O)CC3CCOCC3)cc2F)cn1 [Example 823, formic acid salt]: 192

1: CC(C)S(=O)(=O)c1ncccc1-c1ccc(-c2cnc(N)nc2)c(F)c1
2: Nc1ncc(-c2ccc(-c3ccccc3Oc3ccnc(N)n3)cc2F)cn1
Out of 1 and 2 , name the one with the higher Ki. // respond with label for picked entry
1
(1: 273 nM, 2: 12 nM)

* * *

Molecular target: human FLAP (Homo sapiens (Human), UniProt P20292)
Test: FLAP binding assay (HTRF format)
Conditions: human FLAP wild type, HTRF format; average of two plates, duplicates
pKi: −log10 of the molar value.
attributeMeasured: pKi

CNS(=O)(=O)c1ccccc1-c1ccc(-c2cnc3[nH]ccc3n2)c(F)c1: 9.00

I: C[C@@H](CO)NS(=O)(=O)c1ccccc1-c1ccc(-c2cnc3[nH]ccc3c2)c(F)c1
II: CS(=O)(=O)c1ccccc1-c1ccc(-c2cnc(N)cn2)c(F)c1
III: CC(C)(O)CNS(=O)(=O)c1ccccc1-c1ccc(-c2cnc(N)cn2)c(F)c1
Place the items in sequence of falling pKi. // list labels; follow requested order
I, III, II
(I: 9.00, III: 8.70, II: 6.66)

* * *

Molecular target: human FLAP (Homo sapiens (Human), UniProt P20292)
Assay: FLAP binding assay (HTRF format)
Conditions: human FLAP wild type, HTRF format; average of two plates, duplicates
Description: The ability of the compounds of the present invention to treat a FLAP-mediated disease and/or disorder, or associated symptoms or complications thereof, was determined using the following procedures. Binding assay data represent the average value obtained from two different assay plates, with samples run in duplicate on each plate. Human whole blood assay data represent a single replicate on an assay plate using whole blood from at least one healthy donor. Data are expressed as a HTRF ratio.
attributeMeasured: Ki (nM)

Answered examples (5):
Nc1cnc(-c2ccc(-c3ccccc3S(=O)(=O)N3CCN(C4CC4)CC3)cc2F)cn1: 28
Nc1cnc(-c2ccc(-c3ccccc3NS(N)(=O)=O)cc2F)cn1: 304
Cn1c(S(=O)(=O)c2ccccc2-c2ccc(-c3cnc(N)nc3)c(F)c2)nc2ccccc21: 129
Nc1cnc(-c2ccc(-c3ccccc3S(=O)(=O)N3CCC(O)CC3)cc2F)cn1: 3
Nc1cnc(-c2ccc(-c3ccccc3S(=O)(=O)N3CCN(CCO)CC3)cc2F)cn1: 20

A: Nc1cnc(-c2ccc(-c3ccccc3S(=O)(=O)N(CCO)C3CCCCC3)cc2F)cn1
B: Nc1cnc(-c2ccc(-c3ccccc3SCCNC(=O)c3ccccc3)cc2F)cn1
C: CC(C)[C@@H](CO)NS(=O)(=O)c1ccccc1-c1ccc(-c2cnc(N)cn2)c(F)c1
# rank_down: sort by Ki, max first Present the labels in the sequence the task asks for.
B, C, A

* * *

Recorded Ki, one value per entry.
Biological target: human FLAP (Homo sapiens (Human), UniProt P20292)
Assay: FLAP binding assay (HTRF format)
Settings: wild type FLAP, HTRF format
Where a name gives a salt, the structure may show the parent alone.

Would you please look over these solved cases?
C[S+]([O-])c1ccccc1-c1ccc(-c2cnc(N)cn2)c(F)c1 (racemic): > 10 µM
COc1c(-c2ccccc2S(C)(=O)=O)ccc(-c2cnc(N)cn2)c1F: ~0.354 µM
Nc1ncc(-c2ccc(-c3ccccc3S(=O)(=O)CC(=O)N3CCOCC3)cc2F)cn1: > 10 µM

// fetch Ki given entry Nc1ncc(-c2ccc(-c3ccccc3S(=O)(=O)C3CC3)cn2)cn1 [Example 691, trifluoroacetic acid salt]
> 10 µM
